Cited source: paper PMC3413742

system: NET (Homo sapiens, UniProt P23975)
Sequence (P23975 whole entry): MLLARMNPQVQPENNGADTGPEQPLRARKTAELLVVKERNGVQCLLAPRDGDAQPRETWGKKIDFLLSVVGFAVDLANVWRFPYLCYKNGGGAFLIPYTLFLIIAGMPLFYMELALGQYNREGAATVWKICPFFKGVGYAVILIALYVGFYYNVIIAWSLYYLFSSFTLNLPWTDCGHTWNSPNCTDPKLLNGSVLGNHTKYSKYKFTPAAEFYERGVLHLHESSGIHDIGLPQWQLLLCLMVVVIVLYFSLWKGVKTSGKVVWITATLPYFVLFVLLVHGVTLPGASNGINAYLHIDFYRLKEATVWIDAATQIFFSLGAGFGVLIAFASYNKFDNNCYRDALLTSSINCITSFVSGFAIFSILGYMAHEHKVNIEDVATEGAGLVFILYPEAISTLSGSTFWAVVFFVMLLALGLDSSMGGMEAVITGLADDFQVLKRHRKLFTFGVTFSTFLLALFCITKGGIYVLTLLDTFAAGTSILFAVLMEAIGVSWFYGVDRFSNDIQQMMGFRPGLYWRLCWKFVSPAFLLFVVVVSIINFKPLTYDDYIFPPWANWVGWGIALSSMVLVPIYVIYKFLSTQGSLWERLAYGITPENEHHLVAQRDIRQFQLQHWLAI
protocol-description: [3H]nisoxetine binding at the NET
observable: IC50

Could you share what IC50 was measured for NC(=O)C[S@@+]([O-])C(c1ccccc1)c1ccccc1 [R-modafinil, R-(−)-modafinil] , tested on NET (Homo sapiens, UniProt P23975)?
> 100 µM

###

system: NET (Homo sapiens)
protocol-description: [3H]DA uptake inhibition at the NET
Assay type: cell-based
test-settings: read-out: IC50, inhibition of [3H]DA uptake at the NET; N=3, data not shown
observable: IC50

What value of measured IC50 is listed for NC(=O)C[S@+]([O-])C(c1ccccc1)c1ccccc1 [S-modafinil, S-(+)-modafinil] ?
> 100 µM
